biological target: human RORγ (Homo sapiens, UniProt P51449); construct: human, NM_005060.3 and from Ser253 to Lys518; expressed in transfected cells; host or cells: CHO cells (transient co-transfection with pG5-Luc reporter); experiment: Luciferase reporter gene assay of inhibitory effect against RORγ transcriptional activity (GAL4-hRORγ plasmid in CHO cells); type: cell-based; conditions: read-out: LUC EC50 hRORg
pEC50: −log10 of the molar value.
measure-name: pEC50

[[record]]
molecule_smiles = "Cc1ccc(NC(=O)C[C@H](OCc2ccccc2)c2nnc([C@H]3C[C@@H](CC(C)C)C3)n2C2CC2)c(C)c1"
value_reported = "> 5.52"

[[record]]
molecule_smiles = "CC(C)(C)C[C@H]1C[C@@H](c2onc([C@@H](CCC(=O)O)CC(=O)NCC3CCOCC3)c2C2CC2)C1"
value_reported = "< 5.52"

[[record]]
molecule_smiles = "CCN(CC)C(=O)CN1C[C@H](C(=O)Nc2ccc(C)cc2C)[C@@H](c2nnc([C@H]3C[C@@H](CC(C)C)C3)n2C2CC2)C1"
value_reported = "> 5.52"

[[record]]
molecule_smiles = "Cc1ccc(NC(=O)C[C@H](CC(F)(F)F)c2nnc([C@H]3C[C@@H](CC(C)C)C3)n2C2CC2)c(C)c1"
value_reported = "> 5.52"


====

molecular target: human RORγ (Homo sapiens); construct: human, NM_005060.3 and from Ser253 to Lys518; expressed in transfected cells; host or cells: CHO cells (transient co-transfection with pG5-Luc reporter); experiment: Luciferase reporter gene assay of inhibitory effect against RORγ transcriptional activity (GAL4-hRORγ plasmid in CHO cells); type: cell-based; conditions: read-out: LUC EC50 (μM) hRORg
Listing of entries alongside the reported EC50.
measure-name: EC50

[[record]]
compound = "Cc1c(Cl)cccc1NC(=O)CCc1nnc(CCn2cccn2)n1C1CC1"
experimental_system = "human RORγ (Homo sapiens)"
value_reported = "> 3 µM"

[[record]]
compound = "CCn1c(CCC(=O)Nc2ccc(C)cc2C)nnc1CCC1CCCCC1"
experimental_system = "human RORγ (Homo sapiens)"
value_reported = "< 3 µM"

[[record]]
compound = "CC(=O)N1C[C@@H](C(=O)Nc2ccc(C)cc2C)[C@H](c2nnc(-c3ccc(CC(C)C)cc3)n2C2CC2)C1"
experimental_system = "human RORγ (Homo sapiens)"
value_reported = "> 3 µM"

[[record]]
compound = "Cc1ccc(NC(=O)CCc2nnc(-c3ccc(CC(C)C)cc3)n2C2CC2)c(C)c1"
experimental_system = "human RORγ (Homo sapiens)"
value_reported = "< 3 µM"

[[record]]
compound = "C=CCC(CC(=O)Nc1ccc(C)cc1C)c1nnc(C(F)(F)CCC(C)(C)C)n1C1CC1 (racemic)"
experimental_system = "human RORγ (Homo sapiens)"
value_reported = "< 3 µM"

[[record]]
compound = "C=CCC(CC(=O)Nc1cccc(Cl)c1C)c1nnc(CCC(C)C)n1C1CC1 (racemic)"
experimental_system = "human RORγ (Homo sapiens)"
value_reported = "< 3 µM"

[[record]]
compound = "CCn1c(CCC(=O)Nc2cccc3ccccc23)nnc1CC1CCCCC1"
experimental_system = "human RORγ (Homo sapiens)"
value_reported = "> 3 µM"

[[record]]
compound = "Cc1ccc(NC(=O)C[C@H](CCC(=O)O)c2noc(-c3cc(C(F)(F)C(C)C)on3)c2C2CC2)c(Cl)c1"
experimental_system = "human RORγ (Homo sapiens)"
value_reported = "< 3 µM"


====

biological target: human RORγ (Homo sapiens); construct: human, NM_005060.3 and from Ser253 to Lys518; expressed in transfected cells; host or cells: CHO cells (transient co-transfection with pG5-Luc reporter); test: Luciferase reporter gene assay of inhibitory effect against RORγ transcriptional activity (GAL4-hRORγ plasmid in CHO cells); type: cell-based; settings: read-out: LUC EC50 (μM) hRORg
measure-name: EC50

[[record]]
compound = "CC(=O)N1C[C@H](C(=O)Nc2ccc(C)cc2C)[C@@H](c2nnc(CCCC(C)C)n2C2CC2)C1 [Example F-315]"
value_reported = "< 3 µM"

[[record]]
compound = "Cc1ccc(NC(=O)CC(CCOCc2ccccc2)c2nnc(-c3cc(CC(C)C)on3)n2C2CC2)c(C)c1 (racemic)"
value_reported = "> 3 µM"

[[record]]
compound = "Cc1ccc(NC(=O)CC(CO)c2nnc(CCCC(C)C)n2C2CC2)c(C)c1 (racemic)"
value_reported = "< 3 µM"

[[record]]
compound = "CCn1c(CCC(=O)Nc2cccc3ccccc23)nnc1C1CCCCC1"
value_reported = "> 3 µM"


====

target: human RORγ (Homo sapiens); construct: human, NM_005060.3 and from Ser253 to Lys518; expressed in transfected cells; host or cells: CHO cells (transient co-transfection with pG5-Luc reporter); test: Luciferase reporter gene assay of inhibitory effect against RORγ transcriptional activity (GAL4-hRORγ plasmid in CHO cells); assay type: cell-based; details: read-out: LUC EC50 hRORg
measure-name: EC50

[[record]]
compound = "Cc1ccc(NC(=O)[C@H]2CN(C(=O)N3CCN(C)CC3)C[C@@H]2c2nnc([C@H]3C[C@@H](CC(C)C)C3)n2C2CC2)c(C)c1 [Example F-655]"
experimental_system = "human RORγ (Homo sapiens)"
value_reported = "< 3 µM"

[[record]]
compound = "Cc1ccc(NC(=O)C[C@@H](CCCO)c2nnc([C@H]3C[C@@H](CC(C)C)C3)n2C2CC2)c(C)c1 [Example F-510]"
experimental_system = "human RORγ (Homo sapiens)"
value_reported = "> 3 µM"

[[record]]
compound = "COC1C[C@@H](C(=O)Nc2ccc(C)cc2C)[C@H](c2nnc([C@H]3C[C@@H](CC(C)C)C3)n2C2CC2)C1 (single isomer, unassigned) [Example F-555]"
experimental_system = "human RORγ (Homo sapiens)"
value_reported = "> 3 µM"

[[record]]
compound = "Cc1ccc(NC(=O)CCc2noc(C3(CC(=O)O)CC(CC(C)(C)C)C3)c2C2CC2)c(Cl)c1 (mixture of isomers) [Example F-743]"
experimental_system = "human RORγ (Homo sapiens)"
value_reported = "> 3 µM"

[[record]]
compound = "CCN(CC)CC(=O)N1C[C@H](C(=O)Nc2ccc(C)cc2C)[C@@H](c2nnc([C@H]3C[C@@H](CC(C)(C)C)C3)n2C2CC2)C1 [Example F-650]"
experimental_system = "human RORγ (Homo sapiens)"
value_reported = "< 3 µM"

[[record]]
compound = "CC(=O)N1C[C@H](C(=O)Nc2ccc(Cl)cc2F)[C@@H](c2nnc([C@H]3C[C@@H](CC(C)C)C3)n2C2CC2)C1 [Example F-604]"
experimental_system = "human RORγ (Homo sapiens)"
value_reported = "< 3 µM"


====

Biological target: human RORγ (Homo sapiens, UniProt P51449)
Construct: human, NM_005060.3 and from Ser253 to Lys518; expressed in transfected cells; host or cells: CHO cells (transient co-transfection with pG5-Luc reporter)
Sequence (P51449 253-518): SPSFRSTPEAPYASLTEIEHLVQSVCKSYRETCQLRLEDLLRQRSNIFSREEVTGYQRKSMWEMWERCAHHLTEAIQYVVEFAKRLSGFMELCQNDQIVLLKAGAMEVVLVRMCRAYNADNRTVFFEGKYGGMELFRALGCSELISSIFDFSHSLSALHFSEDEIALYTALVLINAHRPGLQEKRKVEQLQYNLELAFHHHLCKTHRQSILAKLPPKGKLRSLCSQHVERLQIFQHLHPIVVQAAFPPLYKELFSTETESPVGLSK
Test: Luciferase reporter gene assay of inhibitory effect against RORγ transcriptional activity (GAL4-hRORγ plasmid in CHO cells)
Format: cell-based
Conditions: read-out: LUC EC50 (μM) hRORg
measure-name: EC50

[[record]]
compound = "Cc1ccc(NCc2nnc(CCC(=O)Nc3cccc(Cl)c3C)n2C2CC2)c(C)c1"
measure_name = "EC50"
value_reported = "< 3 µM"

[[record]]
compound = "COc1cc(C)ccc1CNC(=O)CCc1nnc(CCCC(C)C)n1C1CC1"
measure_name = "EC50"
value_reported = "< 3 µM"

[[record]]
compound = "CC(=O)NCCC(CC(=O)Nc1ccc(C)cc1C)c1nnc(CCCC(C)C)n1C1CC1 (racemic)"
measure_name = "EC50"
value_reported = "> 3 µM"

[[record]]
compound = "C#CCC(CC(=O)Nc1ccc(C)cc1C)c1nnc(CCCC(C)(C)C)n1C1CC1 (racemic)"
measure_name = "EC50"
value_reported = "< 3 µM"

[[record]]
compound = "Cc1ccc(NC(=O)C[C@H](CCC(=O)O)c2noc(-c3cc(C4C(C)(C)C4(C)C)on3)c2C2CC2)c(Cl)c1"
measure_name = "EC50"
value_reported = "< 3 µM"

[[record]]
compound = "CC(=O)N1C[C@@H](C(=O)Nc2ccc(C)cc2C)[C@H](c2nnc(CCC3CCCCC3)n2C2CC2)C1"
measure_name = "EC50"
value_reported = "> 3 µM"

[[record]]
compound = "Cc1ccc(NC(=O)C[C@H](CCO)c2nnc([C@H]3C[C@@H](CC(C)C)C3)n2C2CC2)c(C)c1"
measure_name = "EC50"
value_reported = "< 3 µM"

